- Test system: Escherichia coli
- test_name: Antimicrobial activity against Escherichia coli BW25113 after 24 hrs by spectrophotometric method
- Format: functional
- conditions_used: BW25113, 24 h
metric_name: MIC

compound: O=C1CC(c2ccc(F)c(F)c2)Oc2cc(O)cc(O)c21 (stereo unspecified)
measurement_target: Escherichia coli
reported_measurement: 1000 µM
--
compound: O=C1CC(c2cc(O)c(O)c(O)c2)Oc2cc(O)cc(O)c21 (stereo unspecified)
measurement_target: Escherichia coli
reported_measurement: 1000 µM
--
compound: O=C1CC(c2ccc(Cl)c(Cl)c2)Oc2cc(O)cc(O)c21 (stereo unspecified)
measurement_target: Escherichia coli
reported_measurement: 125 µM
--
compound: O=C1CC(c2ccc(F)cc2)Oc2cc(O)cc(O)c21 (stereo unspecified)
measurement_target: Escherichia coli
reported_measurement: 500 µM
--
compound: O=C1CC(c2cc(F)c(F)c(F)c2)Oc2cc(O)cc(O)c21 (stereo unspecified)
measurement_target: Escherichia coli
reported_measurement: 1000 µM
--
compound: O=C1CC(c2ccc(Cl)c(F)c2)Oc2cc(O)cc(O)c21 (stereo unspecified)
measurement_target: Escherichia coli
reported_measurement: 250 µM

###

- test_name: Cytotoxicity against human HepG2 cells assessed as cell viability at 50 uM after 6 hrs by MTS assay
- Type: cell-based
- conditions_used: read-out: Activity

molecule: O=C1CC(c2ccc(Cl)c(Cl)c2)Oc2cc(O)cc(O)c21 (stereo unspecified)
measure_unit: %
viability at 6 h, 50 µM: 17

###

- test_name: Aqueous solubility of compound
- Type: physicochemical
- conditions_used: buffer
In this section we review reported solubility values for a set of compounds.
metric_name: solubility (µM)

compound: O=C1CC(c2ccc(Cl)c(Cl)c2)Oc2cc(O)cc(O)c21 (stereo unspecified)
metric_name: solubility
reported_measurement: 63
//
compound: O=C1CC(c2cc(F)c(F)c(F)c2)Oc2cc(O)cc(O)c21 (stereo unspecified)
metric_name: solubility
reported_measurement: 500
//
compound: O=C1CC(c2ccc(F)c(F)c2)Oc2cc(O)cc(O)c21 (stereo unspecified)
metric_name: solubility
reported_measurement: 1000
//
compound: O=C1CC(c2ccc(Cl)c(F)c2)Oc2cc(O)cc(O)c21 (stereo unspecified)
metric_name: solubility
reported_measurement: 500
//
compound: O=C1CC(c2ccc(F)cc2)Oc2cc(O)cc(O)c21 (stereo unspecified)
metric_name: solubility
reported_measurement: 1000
//
compound: O=C1CC(c2cc(O)c(O)c(O)c2)Oc2cc(O)cc(O)c21 (stereo unspecified)
metric_name: solubility
reported_measurement: 63

###

In this section we review reported MIC values for a set of compounds.
- Tested on: Saccharomyces cerevisiae
- test_name: Antifungal activity against Saccharomyces cerevisiae INVSc1 after 24 hrs by spectrophotometric method
- Type: functional
- conditions_used: INVSc1, 24 h
metric_name: MIC (µM)

compound: O=C1CC(c2ccc(F)c(F)c2)Oc2cc(O)cc(O)c21 (stereo unspecified)
measurement_target: Saccharomyces cerevisiae
metric_name: MIC
reported_measurement: 1000

compound: O=C1CC(c2ccc(Cl)c(F)c2)Oc2cc(O)cc(O)c21 (stereo unspecified)
measurement_target: Saccharomyces cerevisiae
metric_name: MIC
reported_measurement: 250

compound: O=C1CC(c2cc(O)c(O)c(O)c2)Oc2cc(O)cc(O)c21 (stereo unspecified)
measurement_target: Saccharomyces cerevisiae
metric_name: MIC
reported_measurement: 1000

compound: O=C1CC(c2ccc(Cl)c(Cl)c2)Oc2cc(O)cc(O)c21 (stereo unspecified)
measurement_target: Saccharomyces cerevisiae
metric_name: MIC
reported_measurement: 31.2

compound: O=C1CC(c2ccc(F)cc2)Oc2cc(O)cc(O)c21 (stereo unspecified)
measurement_target: Saccharomyces cerevisiae
metric_name: MIC
reported_measurement: 250

compound: O=C1CC(c2cc(F)c(F)c(F)c2)Oc2cc(O)cc(O)c21 (stereo unspecified)
measurement_target: Saccharomyces cerevisiae
metric_name: MIC
reported_measurement: 125

###

- Test system: Pseudomonas aeruginosa
- test_name: Antimicrobial activity against Pseudomonas aeruginosa PAO1 after 24 hrs by spectrophotometric method
- Assay type: functional
- conditions_used: PAO1, 24 h

molecule: O=C1CC(c2ccc(Cl)c(F)c2)Oc2cc(O)cc(O)c21 (stereo unspecified)
measure_unit: µM
MIC: 250
--
molecule: O=C1CC(c2cc(F)c(F)c(F)c2)Oc2cc(O)cc(O)c21 (stereo unspecified)
measure_unit: µM
MIC: 1000
--
molecule: O=C1CC(c2ccc(F)c(F)c2)Oc2cc(O)cc(O)c21 (stereo unspecified)
measure_unit: µM
MIC: 1000
--
molecule: O=C1CC(c2ccc(Cl)c(Cl)c2)Oc2cc(O)cc(O)c21 (stereo unspecified)
measure_unit: µM
MIC: 125
--
molecule: O=C1CC(c2cc(O)c(O)c(O)c2)Oc2cc(O)cc(O)c21 (stereo unspecified)
measure_unit: µM
MIC: 1000
--
molecule: O=C1CC(c2ccc(F)cc2)Oc2cc(O)cc(O)c21 (stereo unspecified)
measure_unit: µM
MIC: 500
